- Experimental Target: UniProt P41145
- Sequence (P41145 whole entry): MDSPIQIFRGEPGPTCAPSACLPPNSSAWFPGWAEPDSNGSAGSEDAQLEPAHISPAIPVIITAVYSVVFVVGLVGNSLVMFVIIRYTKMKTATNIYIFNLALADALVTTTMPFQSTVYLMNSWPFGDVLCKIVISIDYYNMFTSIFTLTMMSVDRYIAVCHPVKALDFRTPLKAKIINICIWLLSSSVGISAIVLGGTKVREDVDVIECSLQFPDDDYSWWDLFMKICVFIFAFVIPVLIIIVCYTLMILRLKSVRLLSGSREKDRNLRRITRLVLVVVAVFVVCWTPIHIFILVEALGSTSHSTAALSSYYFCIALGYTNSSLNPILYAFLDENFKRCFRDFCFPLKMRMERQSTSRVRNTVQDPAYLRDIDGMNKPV
- Protocol: biochemical
Measured Attribute: EC50 (nM)
Your answer should be a plain number; it is taken to be in nM.

CCOCO[C@H]1C[C@@H](C(=O)OC)[C@]2(C)CC[C@H]3C(=O)O[C@H](c4ccoc4)C[C@]3(C)[C@H]2C1=O [Compound 4]; 0.65
COCO[C@H]1C[C@@H](C(=O)OC)[C@]2(C)CC[C@H]3C(=O)O[C@H](C(=O)N4CCCCC4)C[C@]3(C)[C@H]2C1=O [Compound 14]; 1930
COC(=O)[C@@H]1C[C@H](O[C@H]2CCCO2)C(=O)[C@H]2[C@@]1(C)CC[C@H]1C(=O)O[C@H](c3ccoc3)C[C@]21C [Compound 7b]; 690
COC(=O)[C@@H]1C[C@H](O[C@@H]2CCCCO2)C(=O)[C@H]2[C@@]1(C)CC[C@H]1C(=O)O[C@H](c3ccoc3)C[C@]21C [Compound 5]; 60

Here's the next entry for you.
### Prompt Suppose we examine the molecule COC(=O)[C@@H]1C[C@H](O[C@@H]2CCCO2)C(=O)[C@H]2[C@@]1(C)CC[C@H]1C(=O)O[C@H](c3ccoc3)C[C@]21C [Compound 7a] ; what EC50 value has been reported?
### Response 1220
